The origin of these recorded values is PubChem BioAssay AID463173.

System: Wild type
Assay: S. aureus survival, RN4220 and DeltatarO strains – OD600, teichoic acid synthesis inhibitors, primary screen (AID 463173)
Settings: S. aureus RN4220 wild type/DeltatarO growth, OD600, 18 h, active compounds read low, screened at 18.75 µg/mL (by protocol)
Among all 52,000 compounds or so, about 1,700 (3.3%) were called active. Shown is part of a subset that was picked to be rich in actives.
Threshold-based label: survival under 50% gives 1.0, survival not under 50% gives 0.0.

- CCOc1cc(CNc2ccc(O)cc2)cc(Cl)c1OCc1ccccc1: 1.0
- Cc1cc(C)cc(NC(=O)C2CCN(S(=O)(=O)c3cccc(-c4noc(C)n4)c3)CC2)c1: 1.0
- Cc1ccn2c(Nc3ccc(C(C)C)cc3)c(-c3cccs3)nc2c1: 0.0
- S=c1nc[nH]c2c1[nH]c1ccccc12: 0.0
- CCOc1cc(CNc2ccc(C(=O)O)cc2)ccc1OCc1ccccc1: 0.0
- CC(=O)N1CCCc2cc(S(=O)(=O)N(Cc3ccccc3)C(C)C)ccc21: 0.0
- Cc1ccn2c(Nc3ccccc3C)c(-c3ccccc3)nc2c1: 1.0
- Cc1ccc(OCC(=O)Nc2ccc3nc(SCCOc4ccccc4)sc3c2)cc1: 0.0
- CCOc1cccc(CNc2ccc(O)cc2)c1OCc1ccccc1Cl: 0.0
- COc1cc(CNc2ccc3[nH]c(=O)[nH]c3c2)cc(Br)c1OCc1ccc(F)cc1: 0.0
- CCN(C(=O)CSc1nnc(-c2ccc(Cl)cc2)o1)c1ccccc1: 0.0

###

System: Wild type
Assay: S. aureus survival, RN4220 and DeltatarO strains – OD600, teichoic acid synthesis inhibitors, primary screen (AID 463173)
Conditions: S. aureus RN4220 wild type/DeltatarO growth, OD600, 18 h, screened at 18.75 µg/mL (by protocol)
Out of some 52,000 compounds screened, about 1,700 (3.3%) were called active. Cut-off read from the data, not from the text of the source: active = survival mostly below about 52% (no sharp cut-off); inactive = mostly above about 56%. The entries come from a sample that favours actives as a whole.
Classes used: active, inactive

* Cc1cn(C)c(CC(=O)N2CCN(c3cccc(Cl)c3)CC2)c1C(=O)O | inactive
* Cc1ccc2c(c1)sc1nc(=O)n(-c3ccc(Cl)c(Cl)c3)c(=O)n12 | active
* Cc1ccc2c(c1)sc1nc(=O)n(-c3cccc(Cl)c3)c(=O)n12 | inactive
* COc1ccc(Nc2ncc3c(n2)CCN(Cc2ccc(Br)s2)C3)c(OC)c1 | inactive
* Cc1ccc(NC(=O)CN2C(=O)c3ccccc3Sc3ccc(C(=O)N4CCCC4)cc32)cc1 | inactive
* Cc1nn(-c2ccccc2)c2sc(C(=O)Nc3cccc(Br)c3)cc12 | inactive
* Cc1ccc(NC(=O)CN2C(=O)c3ccccc3Sc3ccc(C(=O)N4CCOCC4)cc32)c(Cl)c1 | active
* Cc1cc(C)n(-c2nc3cc(Cl)ccc3nc2N2CCN(c3ccccc3F)CC2)n1 | inactive
* O=S(=O)(c1ccc(-c2csc(=Nc3ccc(OC(F)(F)Cl)cc3)n2CCCO)cc1)N1CCCC1 | inactive
* Cc1cc(C)n(-c2nc3cc(Cl)ccc3nc2Nc2ccc(C)c(F)c2)n1 | inactive
* Cc1cccc(N2CCN(C(=O)Cc3c(C(=O)O)c(C)cn3C)CC2)c1C | inactive
* COC(=O)Cn1c(SCCOc2ccccc2Cl)nc2ccccc21 | inactive
* Cc1nn(-c2ccccc2)c2sc(C(=O)Nc3cccc(Cl)c3)cc12 | active
* Cc1cc(C)n(CCc2nc3c4ccccc4nc(N4CCN(c5cccc(C)c5C)CC4)n3n2)n1 | inactive
* CCN(C(=O)c1cn(-c2ccc(OC)cc2)c(=O)c2ccccc12)c1cccc(Cl)c1 | inactive
* Cc1ccc(C)c(N2CCN(c3nc4ccc(C)cc4nc3-n3nc(C)cc3C)CC2)c1 | inactive
* COc1ccc(-n2nc(C(=O)N3CCN(c4ccccc4OC)CC3)c3c4ccccc4n(C)c3c2=O)cc1 | inactive
* Cc1cn(C)c(CC(=O)N2CCN(c3ccc(F)cc3)CC2)c1C(=O)O | inactive
* Cc1ccc2nc(N3CCN(c4cccc(Cl)c4)CC3)c3nnnn3c2c1 | inactive
* CC1(C)N=C2C(=[N+]1[O-])CCC/C2=N/O | inactive
* CC(C)CNS(=O)(=O)c1ccccc1 | inactive
* CCOc1ccc(Cn2c(=O)oc3ccccc32)cc1 | inactive
* CCc1ccc(NC(=O)C2CCN(c3nc(-c4ccc(OC)cc4)no3)CC2)cc1 | inactive
* Cc1cc(C)n(-c2nc3ccccc3nc2N2CCN(c3cccc(C)c3C)CC2)n1 | active
* CCOc1ccccc1CNC(=O)Cn1ncn2nc(-c3cccs3)cc2c1=O | inactive
* Cc1cc(C)n(-c2nc3cc(Cl)ccc3nc2N2CCN(c3cccc(C)c3C)CC2)n1 | active
* COc1ccccc1N1CCN(C(=O)Cc2c(C(=O)O)c(C)cn2C)CC1 | active
* CCOc1ccc(CN2CCN(Cc3ccc4c(c3)c3ccccc3n4CC)CC2)cc1 | active
* COC(=O)Cn1c(SCCOc2ccccc2OC)nc2ccccc21 | inactive
* CCn1c(SCCOc2ccccc2F)nc2ccccc21 | active
* O=C1C2=C(Nc3ncnn3C2c2ccccc2)c2ccccc21 (configuration not stated) | inactive
* CCc1cccc(NC(=O)CCNS(=O)(=O)c2ccc3c(c2)CCN3C(C)=O)c1 | inactive
* CCn1c2ccccc2c2cc(CN3CCN(Cc4ccc(Cl)cc4)CC3)ccc21 | active
* CCOc1ccc(NC(=O)CCc2c(C)nc3cc(-c4ccccc4OC)nn3c2C)cc1 | inactive
* Cc1cn(C)c(CC(=O)N2CCN(c3ccccc3F)CC2)c1C(=O)O | inactive
* Brc1ccc(-n2nc(-c3ccccc3)c3cnc4cc5c(cc4c32)OCO5)cc1 | inactive
* Cc1nc(-c2ccc(C)c(S(=O)(=O)N3CCC(C(=O)Nc4ccc(Cl)cc4)CC3)c2)no1 | inactive
* Cc1ccc(C)c(N2CCN(S(=O)(=O)c3cc(-c4cc(C)no4)ccc3C)CC2)c1 | inactive
* CCn1c(SCC(=O)N(C2CCCCC2)C2CCCCC2)nnc1C(C)C | inactive
* CN(C)c1ccc(NC(=O)CN2C(=O)c3ccccc3Sc3ccc(C(=O)N4CCCC4)cc32)cc1 | active
* COC(=O)c1cccc(S(=O)(=O)N2CCC(NC(=O)Nc3cccc(F)c3)CC2)c1 | inactive
* COc1ccc(N2CCN(C(=O)Cc3c(C(=O)O)c(C)cn3C)CC2)cc1 | active

###

Parameter: survival. Scope: all listed entries.
System: Wild type
Assay: S. aureus survival, RN4220 and DeltatarO strains – OD600, teichoic acid synthesis inhibitors, primary screen (AID 463173)
Settings: S. aureus RN4220 wild type/DeltatarO growth, OD600, 18 h, active compounds read low, screened at 18.75 µg/mL (by protocol)
Among all 52,000 compounds or so, about 1,700 (3.3%) were called active. The sample as a whole holds a higher share of actives than the screen did.
recorded.metric: survival (%)

- Cc1noc(C)c1S(=O)(=O)NCCc1csc2nc(-c3ccc(Cl)cc3)nn12: 72
- CCOc1cc(C2NC(=O)c3c(sc4c3CCN(C)C4)N2)ccc1OC(=O)c1ccc(Br)cc1 (stereo not given): 71
- CCOc1ccc(-c2nc(SCC(=O)NC3CCCC3)c(-c3ccccc3)[nH]2)cc1OC: 73
- CCn1c(CNC(=O)c2ccc(OC)cc2)nnc1SCC(=O)Nc1cccc(C)c1: 119
- Cc1ccc(C)c(N2CCN(S(=O)(=O)c3ccc4oc(=O)c5ncn(C)c5c4c3)CC2)c1: 81
- COc1ccc(Cn2c(CNS(=O)(=O)c3ccc(Cl)s3)nc3cccnc32)cc1: 78
- Cc1cc(C)cc(OCC(=O)Nc2ccc(S(=O)(=O)Nc3onc(C)c3C)cc2)c1: 73
- O=C(Nc1nnc(C(F)(F)F)s1)c1ccccc1: 74
- Cc1ccc(NC(=O)C2CCN(c3nn4cc(-c5ccc(C)cc5)nc4s3)CC2)cc1: 60
- CCCCC1CCC(C(=O)N2CC(=O)Nc3ccc(Cl)cc3C2c2ccc(F)cc2)CC1 (stereo not given): 71

###

Test system: Wild type
Test: S. aureus survival, RN4220 and DeltatarO strains – OD600, teichoic acid synthesis inhibitors, primary screen (AID 463173)
Details: S. aureus RN4220 wild type/DeltatarO growth, OD600, 18 h, active compounds read low, screened at 18.75 µg/mL (by protocol)
Hit rate of the full screen: of about 52,000 compounds, about 1,700 (3.3%) were called active. Shown is part of a subset that was picked to be rich in actives.
Threshold-based label: survival under 80% gives yes (1), survival not under 80% gives no (0).

• Brc1ccc(-c2nc(N3CCN(c4ccccc4)CC3)c3ccccc3n2)cc1 = no (0)
• CC1CCN(c2nc(-c3ccc(C(C)(C)C)cc3)nc3ccccc23)CC1 = yes (1)
• OC1N(CN2CCN(c3ccccc3F)CC2)c2ccccc2C12OCCCO2 (stereo not given) = no (0)
• CC1CCCCN1c1nc(-c2ccc(C(C)(C)C)cc2)nc2ccccc12 (stereo not given) = yes (1)
